target: PI3Kalpha (Homo sapiens); construct: His (N); host or cells: SF9 cells (baculovirus); assay: Human PI3K alpha enzyme assay (HTRF); format: biochemical; settings: concentration not given; read-out: p110 alpha Percent Inhibition
Sequence (P42336 whole entry, one chain of several): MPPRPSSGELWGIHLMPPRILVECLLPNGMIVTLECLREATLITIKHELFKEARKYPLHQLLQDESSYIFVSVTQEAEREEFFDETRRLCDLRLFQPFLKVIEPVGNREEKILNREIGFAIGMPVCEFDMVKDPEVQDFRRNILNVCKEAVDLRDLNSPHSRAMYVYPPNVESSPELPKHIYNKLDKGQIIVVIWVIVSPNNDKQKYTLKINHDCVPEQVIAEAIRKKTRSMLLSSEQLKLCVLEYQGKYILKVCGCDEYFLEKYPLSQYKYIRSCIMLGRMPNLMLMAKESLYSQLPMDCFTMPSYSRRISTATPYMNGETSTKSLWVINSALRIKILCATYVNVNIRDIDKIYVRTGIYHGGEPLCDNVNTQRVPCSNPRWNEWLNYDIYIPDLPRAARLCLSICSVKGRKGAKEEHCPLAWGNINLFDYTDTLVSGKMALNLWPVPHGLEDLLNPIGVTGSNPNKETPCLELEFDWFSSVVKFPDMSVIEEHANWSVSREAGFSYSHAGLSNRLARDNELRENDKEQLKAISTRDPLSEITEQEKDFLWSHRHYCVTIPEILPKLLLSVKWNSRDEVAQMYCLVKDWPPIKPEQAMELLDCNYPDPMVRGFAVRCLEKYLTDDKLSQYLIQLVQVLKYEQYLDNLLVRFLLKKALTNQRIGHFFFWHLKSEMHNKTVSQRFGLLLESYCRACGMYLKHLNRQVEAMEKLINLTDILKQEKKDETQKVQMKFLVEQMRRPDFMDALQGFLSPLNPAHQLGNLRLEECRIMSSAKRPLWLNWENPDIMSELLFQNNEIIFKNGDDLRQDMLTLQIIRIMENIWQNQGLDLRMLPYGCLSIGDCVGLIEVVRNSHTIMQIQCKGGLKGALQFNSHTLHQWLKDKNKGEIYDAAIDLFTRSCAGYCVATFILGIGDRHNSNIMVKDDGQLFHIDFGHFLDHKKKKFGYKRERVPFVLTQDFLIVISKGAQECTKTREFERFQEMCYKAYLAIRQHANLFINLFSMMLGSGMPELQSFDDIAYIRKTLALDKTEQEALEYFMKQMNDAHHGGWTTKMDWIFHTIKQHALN
readoutLabel: inhibition at 1.1 µM (%)

INSERT INTO results (chemicalsmiles, testvalue) VALUES
  ('c1ccc2cc(Cc3nc(N4CCOCC4)sc3-c3nnn[nH]3)ccc2c1', 30);

(1) N#Cc1c(N2CCOCC2)sc(C(=O)O)c1Cc1ccc2ccccc2c1F
(2) N#Cc1c(N2CCOCC2)sc(C(N)=O)c1C(F)(F)c1ccc2ccccc2c1
INPUT: Given the listed items, does 1 or 2 have the lesser reported inhibition at 1.1 µM? // output: label of the selected item
OUTPUT: 2
(2: 15%, 1: 98%)

----------
biological target: PI3K beta (Homo sapiens); construct: His (N); host or cells: SF9 cells (baculovirus); assay: Human PI3K beta enzyme assay (HTRF); type: biochemical; details: concentration not given; read-out: p110 beta Percent Inhibition
Sequence (P42338 whole entry): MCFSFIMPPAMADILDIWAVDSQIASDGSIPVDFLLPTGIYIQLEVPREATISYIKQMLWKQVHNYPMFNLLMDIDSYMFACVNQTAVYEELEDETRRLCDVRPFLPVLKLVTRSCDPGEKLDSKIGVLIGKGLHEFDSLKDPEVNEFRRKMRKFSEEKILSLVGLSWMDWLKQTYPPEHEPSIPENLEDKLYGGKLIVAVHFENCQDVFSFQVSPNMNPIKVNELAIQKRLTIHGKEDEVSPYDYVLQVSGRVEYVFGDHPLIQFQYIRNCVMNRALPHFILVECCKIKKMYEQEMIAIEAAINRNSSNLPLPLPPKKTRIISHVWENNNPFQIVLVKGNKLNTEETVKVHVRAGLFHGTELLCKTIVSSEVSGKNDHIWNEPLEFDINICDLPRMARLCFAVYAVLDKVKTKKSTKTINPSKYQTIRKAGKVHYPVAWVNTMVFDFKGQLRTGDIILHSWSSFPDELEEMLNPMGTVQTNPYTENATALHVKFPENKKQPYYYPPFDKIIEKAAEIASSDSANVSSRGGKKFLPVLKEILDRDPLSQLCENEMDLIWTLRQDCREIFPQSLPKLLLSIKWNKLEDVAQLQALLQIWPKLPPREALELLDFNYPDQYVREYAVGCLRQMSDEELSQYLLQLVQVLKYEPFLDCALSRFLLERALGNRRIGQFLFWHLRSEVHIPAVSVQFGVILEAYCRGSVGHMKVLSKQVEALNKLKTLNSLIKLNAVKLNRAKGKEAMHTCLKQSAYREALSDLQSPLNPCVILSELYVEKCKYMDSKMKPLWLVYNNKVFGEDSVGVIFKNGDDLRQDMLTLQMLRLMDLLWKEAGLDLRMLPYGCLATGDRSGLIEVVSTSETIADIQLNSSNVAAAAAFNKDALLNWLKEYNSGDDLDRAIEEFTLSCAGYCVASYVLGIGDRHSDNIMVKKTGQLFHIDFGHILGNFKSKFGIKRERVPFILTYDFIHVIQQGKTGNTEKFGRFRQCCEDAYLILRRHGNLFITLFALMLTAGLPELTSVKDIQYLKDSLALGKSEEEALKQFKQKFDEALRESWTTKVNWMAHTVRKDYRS
Sequence (P27986 whole entry partner): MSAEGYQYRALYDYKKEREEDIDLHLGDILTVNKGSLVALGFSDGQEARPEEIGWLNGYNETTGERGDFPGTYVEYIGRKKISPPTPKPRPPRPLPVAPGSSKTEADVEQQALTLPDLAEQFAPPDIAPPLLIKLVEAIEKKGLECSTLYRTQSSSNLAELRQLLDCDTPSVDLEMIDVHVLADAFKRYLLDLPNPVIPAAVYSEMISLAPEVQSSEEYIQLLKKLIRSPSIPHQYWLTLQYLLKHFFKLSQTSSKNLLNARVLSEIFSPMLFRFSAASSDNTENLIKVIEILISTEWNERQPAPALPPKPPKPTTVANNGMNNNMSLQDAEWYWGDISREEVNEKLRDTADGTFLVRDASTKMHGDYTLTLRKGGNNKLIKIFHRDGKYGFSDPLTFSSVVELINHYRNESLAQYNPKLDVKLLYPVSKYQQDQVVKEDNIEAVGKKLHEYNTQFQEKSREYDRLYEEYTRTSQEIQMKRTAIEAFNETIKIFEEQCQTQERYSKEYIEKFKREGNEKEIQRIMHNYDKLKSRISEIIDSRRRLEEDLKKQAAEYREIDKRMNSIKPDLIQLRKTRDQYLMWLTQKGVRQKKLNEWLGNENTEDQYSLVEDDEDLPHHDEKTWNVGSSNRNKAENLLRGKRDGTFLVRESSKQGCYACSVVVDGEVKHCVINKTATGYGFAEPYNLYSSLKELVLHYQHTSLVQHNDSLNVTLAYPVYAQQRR
readoutLabel: inhibition at 1.1 µM (%)

Would you please look over these solved cases?
INSERT INTO assay_data (compound, unitlabel, testvalue) VALUES
  ('c1ccc2cc(Cc3nc(N4CCOCC4)sc3-c3nnn[nH]3)ccc2c1 [Compound 360]', '%', 106),
  ('N#Cc1c(N2CCOCC2)sc(C(=O)O)c1C(F)(F)c1ccc2ccccc2c1 [Compound 308]', '%', 106),
  ('N#Cc1c(N2CCOCC2)sc(C(=O)O)c1Cc1cc(F)c2ccccc2c1 [Compound 324]', '%', 118);

(I) N#Cc1c(N2CCOCC2)sc(C(=O)O)c1Cc1ccc2c(F)cccc2c1 [Compound 343]
(II) COC(c1ccc2ccccc2c1)c1c(C(=O)O)sc(N2CCOCC2)c1C#N (stereo not drawn) [Compound 337]
INPUT: # query: argmin of inhibition at 1.1 µM over I and II Pick one; state its label.
OUTPUT: II
(II: 60%, I: 110%)
